MEASUREMENT_TARGET: T1, human TGFβ3 (human, UniProt P10600 301-412)
T1 sequence: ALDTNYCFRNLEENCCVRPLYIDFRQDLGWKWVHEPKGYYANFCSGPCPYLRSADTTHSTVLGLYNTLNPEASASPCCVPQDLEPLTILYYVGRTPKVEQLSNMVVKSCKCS
EXPERIMENTAL_DETAILS: Biacore off-rate vs wt GC1008, 50 nM
Recorded measurements of kd var/kd wt, one per entry
Lab note: jot the number down without any unit.

| BINDER | ENDPOINT_RESULT |
| --- | --- |
| E74R (antibody, V domains shown, GC1008 IgG4 variant) VH: QVQLVQSGAEVKKPGSSVKVSCKASGYTFSSNVISWVRQAPGQGLEWMGGVIPIVDIANYAQRFKGRVTITADRSTSTTYMELSSLRSEDTAVYYCASTLGLVLDAMDYWGQGTLVTVSS VL: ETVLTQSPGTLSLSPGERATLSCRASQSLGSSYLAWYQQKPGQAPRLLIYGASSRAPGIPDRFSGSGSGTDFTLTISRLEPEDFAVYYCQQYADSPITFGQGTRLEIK | 0.7 |
| D56N (antibody, V domains shown, GC1008 IgG4 variant) VH: QVQLVQSGAEVKKPGSSVKVSCKASGYTFSSNVISWVRQAPGQGLEWMGGVIPIVNIANYAQRFKGRVTITADESTSTTYMELSSLRSEDTAVYYCASTLGLVLDAMDYWGQGTLVTVSS VL: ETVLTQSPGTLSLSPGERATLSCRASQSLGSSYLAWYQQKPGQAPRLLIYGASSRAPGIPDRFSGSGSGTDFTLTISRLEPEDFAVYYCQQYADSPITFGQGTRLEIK | 0.9 |

In the following, a different binder is considered.
What value of kd var/kd wt has been recorded for this entry: E74W (antibody, V domains shown, GC1008 IgG4 variant) VH: QVQLVQSGAEVKKPGSSVKVSCKASGYTFSSNVISWVRQAPGQGLEWMGGVIPIVDIANYAQRFKGRVTITADWSTSTTYMELSSLRSEDTAVYYCASTLGLVLDAMDYWGQGTLVTVSS VL: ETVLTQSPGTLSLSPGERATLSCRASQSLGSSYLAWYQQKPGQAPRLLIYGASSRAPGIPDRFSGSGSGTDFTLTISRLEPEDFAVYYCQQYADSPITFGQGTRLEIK
0.3
